src = the supplement of paper PMC10724198

# System: Saccharomyces cerevisiae
# Assay Procedure: protein stability index of tFT-peptide fusion (C-terminal peptide) (PSI (0-1 scale)); higher = more stable (slower turnover)
# Measurement Conditions: genetic background: wild type; temperature: 30 C
Measured Quantity: protein stability index
Could you keep your reply to the number by itself?

> print(dat)
   sequence.input        measured.quantity  reported.measurement
1    LFVSLSFVVFLP  protein stability index                 0.261
2    KDIFQIYTLYVF  protein stability index                   0.3

Ask: Which protein stability index is reported for this sequence? PALVVALLASVL
Reply: 0.386

Ask: Which protein stability index is reported for this sequence? KYKLYGIMIIEG
Reply: 0.262

Ask: Which protein stability index is reported for this sequence? SLRSRSLRCRLS
Reply: 0.297

Ask: Which protein stability index is reported for this sequence? ACIFDMMWFWLF
Reply: 0.46

Ask: Which protein stability index is reported for this sequence? LYRIETLFMRAQ
Reply: 0.358

Ask: Which protein stability index is reported for this sequence? VCVWVDILAFCS
Reply: 0.174

Ask: Which protein stability index is reported for this sequence? HRFCAPSLSASD
Reply: 0.666

Ask: Which protein stability index is reported for this sequence? VFSGVTTILVRT
Reply: 0.392

Ask: Which protein stability index is reported for this sequence? SVPIAFYLLFFQ
Reply: 0.456

Ask: Which protein stability index is reported for this sequence? SFYVCVPVLWLV
Reply: 0.118

Ask: Which protein stability index is reported for this sequence? VWWWGAVGWLMV
Reply: 0.416

Ask: Which protein stability index is reported for this sequence? RYLHFASLLFAS
Reply: 0.226

Ask: Which protein stability index is reported for this sequence? FVVVGLGLLCLA
Reply: 0.305

Ask: Which protein stability index is reported for this sequence? LMLISFLFLSLL
Reply: 0.397

###

Reported protein stability index is given for each of the following sequences.
# Tested on: Saccharomyces cerevisiae
# Assay Procedure: protein stability index of tFT-peptide fusion (C-terminal peptide) (PSI (0-1 scale)); higher = more stable (slower turnover)
# Measurement Conditions: genetic background: wild type; temperature: 30 C
Could you keep your reply to the number by itself?

Known protein stability index results, listed for orientation:
> print(dat)
   sequence.input                       tgt  reported.measurement
1    KKKNKKQNKAKK  Saccharomyces cerevisiae                  0.64
2    PPLAMVLYSLFE  Saccharomyces cerevisiae                 0.556
3    PLSPPPRRPPSP  Saccharomyces cerevisiae                 0.655
4    VVVIGVWGGGVG  Saccharomyces cerevisiae                 0.612
5    EGGKRGGTPITK  Saccharomyces cerevisiae                 0.654

Ask: API: value(readout=protein stability index, system=Saccharomyces cerevisiae) for record GGGGAGGWGAVG
Reply: 0.67

Ask: API: value(readout=protein stability index, system=Saccharomyces cerevisiae) for record FFYFSLSLSHFC
Reply: 0.496

Ask: API: value(readout=protein stability index, system=Saccharomyces cerevisiae) for record WSSSPAFKPSRR
Reply: 0.655

Ask: API: value(readout=protein stability index, system=Saccharomyces cerevisiae) for record PESPNCRRTRAL
Reply: 0.661

Ask: API: value(readout=protein stability index, system=Saccharomyces cerevisiae) for record FSLLTFPPSSPT
Reply: 0.716

###

Reported protein stability index is given for each of the following sequences.
# Test system: Saccharomyces cerevisiae
# Assay Procedure: protein stability index of tFT-peptide fusion (C-terminal peptide) (PSI (0-1 scale)); higher = more stable (slower turnover)
# Measurement Conditions: genetic background: doa10 deletion; temperature: 30 C
Could you keep your reply to the number by itself?

> print(dat)
   sequence.input  reported.measurement
1    APGLLPPCLLVV                 0.263

Moving on to the next sequence.
Ask: Which protein stability index is reported for this sequence? LFSVFSLVLFIF
Reply: 0.316

###

# System: Saccharomyces cerevisiae
# Assay Procedure: protein stability index of tFT-peptide fusion (C-terminal peptide) (PSI (0-1 scale)); higher = more stable (slower turnover)
# Measurement Conditions: genetic background: das1 deletion; temperature: 30 C
Measured Quantity: protein stability index

> print(dat)
   sequence.input  reported.measurement
1    FITFLVFVGFFL                 0.313
2    LRKARLFLKAKC                 0.497

Ask: Which protein stability index is reported for this sequence? KKIKKYTRKLKI
Reply: 0.673

Ask: Which protein stability index is reported for this sequence? HRARILLIRICP
Reply: 0.411

Ask: Which protein stability index is reported for this sequence? VCVAVCFVMCGG
Reply: 0.324

Ask: Which protein stability index is reported for this sequence? DLRGLGRFRISH
Reply: 0.64

###

Reported protein stability index is given for each of the following sequences.
# System: Saccharomyces cerevisiae
# Assay Procedure: protein stability index of tFT-peptide fusion (C-terminal peptide) (PSI (0-1 scale)); higher = more stable (slower turnover)
# Measurement Conditions: genetic background: wild type; temperature: 30 C

Known protein stability index results, listed for orientation:
> print(dat)
                            sequence.input  reported.measurement
1     MEDEDMVDVIID [ESC2 C-terminal 12 aa]                 0.723
2     EKTRKNISKFFS [CPR7 C-terminal 12 aa]                 0.707
3    IHRVIKNATPVA [PEX28 C-terminal 12 aa]                 0.649
4  HAGTRPVLLLQK [YKL053W C-terminal 12 aa]                 0.674

Ask: API: value(readout=protein stability index, system=Saccharomyces cerevisiae) for record QIVGLLKLLASI [PEX15 C-terminal 12 aa]
Reply: 0.405

Ask: API: value(readout=protein stability index, system=Saccharomyces cerevisiae) for record QQYFQEPQQGQY [MCM1 C-terminal 12 aa]
Reply: 0.703

Ask: API: value(readout=protein stability index, system=Saccharomyces cerevisiae) for record PKSNMYYSWTQL [ORC4 C-terminal 12 aa]
Reply: 0.686

Ask: API: value(readout=protein stability index, system=Saccharomyces cerevisiae) for record KRRPYVRAHAKW [YGR051C C-terminal 12 aa]
Reply: 0.698

Ask: API: value(readout=protein stability index, system=Saccharomyces cerevisiae) for record ALNRADKMSTIG [URH1 C-terminal 12 aa]
Reply: 0.667

Ask: API: value(readout=protein stability index, system=Saccharomyces cerevisiae) for record DFSASSSVEEVK [MFT1 C-terminal 12 aa]
Reply: 0.662

Ask: API: value(readout=protein stability index, system=Saccharomyces cerevisiae) for record CRGIAEVNMKYT [PPS1 C-terminal 12 aa]
Reply: 0.633

Ask: API: value(readout=protein stability index, system=Saccharomyces cerevisiae) for record SLDQEIQSLLSK [GPX2 C-terminal 12 aa]
Reply: 0.654

###

# System: Saccharomyces cerevisiae
# Assay Procedure: protein stability index of tFT-peptide fusion (C-terminal peptide) (PSI (0-1 scale)); higher = more stable (slower turnover)
# Measurement Conditions: genetic background: wild type; temperature: 30 C
Response field class: enum, chosen by comparing protein stability index against LOW (below 0.6), MEDIUM (0.6 to below 0.7), HIGH (0.7 or more)

See these solved cases before continuing.
> print(dat)
   sequence.input  class.name
1    LLLPFVSPPVYS         LOW
2    SPAGGPRGGEGV      MEDIUM
3    GTQTITAQRAAA      MEDIUM

Ask: Category of WQGSASCSVVLV , please.
Reply: LOW

Ask: Category of SPRISSCSPFDS , please.
Reply: HIGH

Ask: Category of LSVQFVSQHTRV , please.
Reply: MEDIUM

Ask: Category of SLPFSPSFLSSF , please.
Reply: MEDIUM

Ask: Category of RPPVGTPPLPHS , please.
Reply: MEDIUM

Ask: Category of VILGRGGSICKV , please.
Reply: HIGH

Ask: Category of HLRWYITGIVWF , please.
Reply: LOW

###

# System: Saccharomyces cerevisiae
# Assay Procedure: protein stability index of tFT-peptide fusion (C-terminal peptide) (PSI (0-1 scale)); higher = more stable (slower turnover)
# Measurement Conditions: genetic background: cdc34-1; temperature: 37 C
Response field class: enum, chosen by comparing protein stability index against lower = under 0.3, middle = from 0.3 up to 0.5, upper = 0.5 and over

> print(dat)
   sequence.input  class.name
1    FERVEYEVLGIG      middle
2    FSGRYFLLFRFL       lower
3    PLTSPLLFPVFA       lower
4    IYTLIINKSKAQ       upper
5    VLGFRPLVFLCF       lower
6    EVVFHVFLVGLV      middle

Ask: Category of PVLIFTWVIVCH , please.
Reply: lower

Ask: Category of VAGGFWCWGMVG , please.
Reply: upper

Ask: Category of HRFCAPSLSASD , please.
Reply: upper
